subject-of-test: human PCSK9 / human LDLR EGFa domain (Homo sapiens)
Sequence (Q8NBP7 153-692): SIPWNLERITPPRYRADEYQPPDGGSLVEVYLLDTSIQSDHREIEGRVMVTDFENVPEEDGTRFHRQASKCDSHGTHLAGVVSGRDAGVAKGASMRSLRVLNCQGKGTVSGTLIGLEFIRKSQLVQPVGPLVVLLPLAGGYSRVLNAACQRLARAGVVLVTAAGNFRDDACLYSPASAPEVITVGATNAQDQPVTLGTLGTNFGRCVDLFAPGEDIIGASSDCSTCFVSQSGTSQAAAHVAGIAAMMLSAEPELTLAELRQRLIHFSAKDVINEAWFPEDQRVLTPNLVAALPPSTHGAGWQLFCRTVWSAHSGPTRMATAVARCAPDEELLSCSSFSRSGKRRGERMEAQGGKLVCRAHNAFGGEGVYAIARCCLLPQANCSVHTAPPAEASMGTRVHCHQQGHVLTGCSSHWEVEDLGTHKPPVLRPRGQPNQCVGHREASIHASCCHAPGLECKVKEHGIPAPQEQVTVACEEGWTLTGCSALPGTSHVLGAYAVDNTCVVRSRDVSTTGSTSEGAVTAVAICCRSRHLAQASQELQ
assay-details: TR-FRET assay of inhibition of the PCSK9-LDLR protein-protein interaction
Type: binding
assay-setup: 20 nM human PCSK9, 20 nM human LDLR EGFa domain, 2 hours room temperature
Numbered stars: 1 amine (or outer) side, 2 acyl side, 3 side chain; on linkers, the order of the positions; unused ones are H or OH. Bridge positions count the residues as written; N and C are the ends. Square brackets hold non-standard residues; d marks the D form. Peptide text beside a SMILES is read from it. Trp(5-F) = N[C@@H](Cc1c[nH]c2ccc(F)cc12)C(=O)O; Pro(cis-4-F) = O=C(O)[C@@H]1C[C@H](F)CN1; X1 = O=C(CCSCc1cccc(CSCCN[*:1])c1)[*:2]; Phe(4-F) = N[C@@H](Cc1ccc(F)cc1)C(=O)O; mXylylene = c1cc(C[*:1])cc(C[*:2])c1; αMeP = C[C@@]1(C(=O)O)CCCN1; Ac5c = NC1(C(=O)O)CCCC1; Mpa = O=C(O)CCS
Entries and their IC50

Examples with answers:
>  <compound>
C[C@@H]1NC(=O)[C@@H]2CCCN2C(=O)[C@H](Cc2c[nH]c3ccc(F)cc23)NC(=O)[C@H](Cc2c[nH]c3ccc(F)cc23)NC(=O)[C@@H](C)NC(=O)C2(CCCC2)NC(=O)CCSCc2cccc(c2)CSCCNC(=O)[C@@H]2CCCN2C(=O)[C@H](Cc2ccc(O)cc2)NC1=O [Compound 030] (cyclo(AYP[X1][Ac5c][dA][Trp(5-F)][Trp(5-F)]P))

>  <subject-of-test>
human PCSK9 / human LDLR EGFa domain (Homo sapiens)

>  <IC50>
100 to 1000 nM

$$$$
>  <compound>
C[C@@H]1NC(=O)CNC(=O)[C@H](CCCCN)NC(=O)CCSCc2cccc(c2)CSC[C@@H](C(N)=O)NC(=O)[C@@H]2CCCN2C(=O)[C@H](Cc2ccc(O)cc2)NC(=O)[C@H](Cc2cnc[nH]2)NC(=O)[C@H](CC(=O)O)NC(=O)[C@H](Cc2c[nH]c3ccc(F)cc23)NC1=O [Compound 112] ([Mpa]KGA[Trp(5-F)]DHYPC-NH2; linker 1-10 via mXylylene)

>  <subject-of-test>
human PCSK9 / human LDLR EGFa domain (Homo sapiens)

>  <IC50>
100 to 1000 nM

$$$$
>  <compound>
COc1ccc(C[C@@H]2NC(=O)[C@H]([C@@H](C)O)NC(=O)[C@@H]3CCCN3C(=O)[C@H]3Cc4cn(c5ccc(F)cc45)Cc4cn(nn4)-c4cc(cc(c4)CSCCC(=O)N[C@@H](C)C(=O)N[C@H](C)C(=O)N[C@@H](Cc4c[nH]c5ccc(F)cc45)C(=O)N3)CSCCNC(=O)[C@]3(C)CCCN3C2=O)cc1

>  <subject-of-test>
human PCSK9 / human LDLR EGFa domain (Homo sapiens)

>  <IC50>
1000 to 12100 nM

$$$$
>  <compound>
C[C@@H](O)[C@@H]1NC(=O)CNC(=O)[C@H](CCCCN)NC(=O)CCSCc2cccc(c2)CSCCNC(=O)[C@]2(C)CCCN2C(=O)[C@H](Cc2ccc(O)cc2)NC(=O)[C@H](Cc2cnc[nH]2)NC(=O)[C@@H]2CCCN2C(=O)[C@H](Cc2c[nH]c3ccc(F)cc23)NC1=O [Compound 105] (cyclo(GT[Trp(5-F)]PHY[αMeP][X1]K))

>  <subject-of-test>
human PCSK9 / human LDLR EGFa domain (Homo sapiens)

>  <IC50>
100 to 1000 nM

$$$$
>  <compound>
C[C@@H]1NC(=O)[C@@H]2C[C@H](F)CN2C(=O)[C@H](Cc2c[nH]c3ccc(F)cc23)NC(=O)[C@H](Cc2c[nH]c3ccc(F)cc23)NC(=O)CNC(=O)[C@H](CCCCN)NC(=O)CCSCc2cccc(c2)CSC[C@@H](C(N)=O)NC(=O)[C@@H]2CCCN2C(=O)[C@H](Cc2ccc(O)cc2)NC1=O [Compound 002] ([Mpa]KG[Trp(5-F)][Trp(5-F)][Pro(cis-4-F)]AYPC-NH2; linker 1-10 via mXylylene)

>  <subject-of-test>
human PCSK9 / human LDLR EGFa domain (Homo sapiens)

>  <IC50>
1 to 100 nM

$$$$

// next item, IC50 requested
Look up IC50: C[C@@H]1NC(=O)[C@@H]2CCCN2C(=O)[C@H](Cc2ccc(F)cc2)NC(=O)[C@H](Cc2c[nH]c3ccc(F)cc23)NC(=O)CNC(=O)[C@H](CCCCN)NC(=O)CCSCc2cccc(c2)CSC[C@@H](C(N)=O)NC(=O)[C@@H]2CCCN2C(=O)[C@H](Cc2ccc(O)cc2)NC1=O [Compound 006] ([Mpa]KG[Trp(5-F)][Phe(4-F)]PAYPC-NH2; linker 1-10 via mXylylene) 100 to 1000 nM
